Reported Ki values are given for each entry in this list.
test: Inhibition of Bacillus stearothermophilus tyrosyl tRNA synthetase; parameters: species or system Geobacillus stearothermophilus
Response body: numeric value in nM, unit text excluded.

Measured Ki of Nc1ncnc2c1ncn2[C@@H]1O[C@H](COP(=O)(O)OCC(N)Cc2ccc(O)cc2)[C@@H](O)[C@H]1O (some centres not stated) : 11

Reported Ki for "Nc1ncnc2c1ncn2[C@@H]1O[C@H](COS(=O)(=O)NC(=O)[C@@H](N)Cc2ccc(O)cc2)[C@@H](O)[C@H]1O" was 26

====

assay: Cytotoxicity against human HepG2 cells assessed as reduction in cell viability incubated for 72 hrs by MTT assay; type: toxicity, cell-based
Test readout: IC50 at 72 h

CC(C)[C@H](NC(=O)N[C@H](C(=O)N[C@@H](CCCCCCCc1ccc(-c2ccccc2)cc1)C(=O)NCCCNC(C(=O)O)[C@H](O[C@@H]1O[C@H](CN)[C@@H](O)[C@H]1O)[C@H]1O[C@@H](n2ccc(=O)[nH]c2=O)[C@H](O)[C@@H]1O)[C@@H]1CCNC(=N)N1)C(=O)O (stereo partly drawn) has a reported IC50 at 72 h of > 100 µg/mL

Please fill in: IC50 at 72 h reported for CC(C)[C@H](NC(=O)N[C@H](C(=O)N[C@H](CCCCCCCc1ccc(-c2ccccc2)cc1)C(=O)NCCCNC(C(=O)O)[C@H](O[C@@H]1O[C@H](CN)[C@@H](O)[C@H]1O)[C@H]1O[C@@H](n2ccc(=O)[nH]c2=O)[C@H](O)[C@@H]1O)[C@@H]1CCNC(=N)N1)C(=O)O (stereo partly drawn) = > 100 µg/mL

// IC50 at 72 h lookup, compound = CCCCOc1ccc(-c2ccc(CC[C@@H](NC(=O)[C@@H](NC(=O)N[C@H](C(=O)O)C(C)C)[C@@H]3CCNC(=N)N3)C(=O)NCCCNC(C(=O)O)[C@H](O[C@@H]3O[C@H](CN)[C@@H](O)[C@H]3O)[C@H]3O[C@@H](n4ccc(=O)[nH]c4=O)[C@H](O)[C@@H]3O)cc2)cc1 (stereo partly drawn) , result: > 100 µg/mL

Hey, just so you know, these numbers are from ChEMBL document CHEMBL5257035.
